Parameter: melting point. Scope: all listed entries.
measure_name: melting point

[[record]]
compound = "CC1C(=O)Oc2cc(N3CCCCC3)ccc21 (stereo not given)"
measure_name = "melting point"
test_value = "78 to 80 °C"

[[record]]
compound = "[N-]=[N+]=NC1CC(n2cc(I)c(=O)[nH]c2=O)OC1C(O)C(c1ccccc1)(c1ccccc1)c1ccccc1 (stereo not given)"
measure_name = "melting point"
test_value = "80 °C"

[[record]]
compound = "COc1ccc(-c2nc(C)c(NC(=O)c3nnn[nH]3)s2)cc1"
measure_name = "melting point"
test_value = "205 to 207 °C"

[[record]]
compound = "Fc1cc(CBr)ccc1-c1nc2ccccc2o1"
measure_name = "melting point"
test_value = "170 to 173 °C"

[[record]]
compound = "CC(C)Cc1nn(C)c(=O)c2cc(C(O)c3cccc4ccccc34)oc12 (stereo not given)"
measure_name = "melting point"
test_value = "110 to 112 °C"

[[record]]
compound = "CCOC(=O)c1cc2cc(Br)ccc2s1"
measure_name = "melting point"
test_value = "94 to 95 °C"

[[record]]
compound = "CC(=O)Oc1ccc(C2CCC(=O)CC2)cc1"
measure_name = "melting point"
test_value = "104 to 106 °C"

[[record]]
compound = "O=C(Nc1ccc(OCCN2CCOCC2)c2ccccc12)c1cc(F)cc(N2CCCCCC2)c1"
measure_name = "melting point"
test_value = "142 to 144 °C"

[[record]]
compound = "CN1c2ccccc2-c2nc3ccc(Cl)cc3c3cccc1c23"
measure_name = "melting point"
test_value = "226 to 228 °C"

[[record]]
compound = "CC(C)[C@@H]1C[C@H](O)[C@H](C2CCCCC2)NC1=O"
measure_name = "melting point"
test_value = "97 to 99 °C"

[[record]]
compound = "COc1ccccc1N1CCN(CCC(N)=O)CC1"
measure_name = "melting point"
test_value = "145 to 146 °C"

[[record]]
compound = "Cc1nnc2n1-c1sccc1C(c1ccccc1)=NC2"
measure_name = "melting point"
test_value = "224 to 226 °C"

[[record]]
compound = "CC(=O)Nc1nc(-c2ccc(CCC(=O)O)cc2)c(Cc2ccc(S(C)(=O)=O)cc2)s1"
measure_name = "melting point"
test_value = "208 to 210 °C"

[[record]]
compound = "Nc1cccc(Nc2nccc(-c3cccnc3)n2)c1"
measure_name = "melting point"
test_value = "89 to 90 °C"

[[record]]
compound = "C[C@H]1[C@H](Oc2cccc(C(F)(F)F)c2)CN1C(N)=O (relative stereo)"
measure_name = "melting point"
test_value = "107 to 108 °C"

